This collection of values is drawn from PubChem BioAssay AID449750.

assay: non-covalent RecA intein splicing inhibitors, dose response, biochemical, cell-free, fluorescence, secondary screen (AID 449750)
Activity calls are given as the source filed them. No rule for the calls is given here.
Labels: active, inactive

CCOc1cc(C(c2c(C)[nH][nH]c2=O)c2c(C)[nH][nH]c2=O)ccc1OC(=O)c1cccc([N+](=O)[O-])c1: active
COc1ccc(Nc2nc(N3CCCCC3)nc3ccccc23)c(OC)c1: inactive
CC1=NN(c2ccccc2)C(=O)/C1=C\c1ccc(Oc2ccc([N+](=O)[O-])cc2[N+](=O)[O-])cc1: active
COc1ccc(-n2c(C)cc(C(=O)CCl)c2C)cc1: active
CC(=O)c1cccc(NC(=O)CSc2ncc(C(=O)Nc3ccccc3)c(=O)n2C)c1: inactive
CCCCCc1cc(=O)oc2c(C(CCN3CCCC(C)C3)c3ccc(N(C)C)cc3)c(OC)cc(OC)c12 (configuration not stated): inactive
CN1C(=O)/C(=N\OC(=O)c2cccc3ccccc23)c2ccccc21: inactive
N#Cc1cc([N+](=O)[O-])ccc1NC(=O)COC(=O)CCC1CCCCC1: active
CC(C)CC1C(C#N)=C(N)Oc2n[nH]c(-c3ccccc3)c21 (configuration not stated): active
CC1=NN(c2cccc(Cl)c2)C(=O)C1: active
COc1cc(/C=C/c2sc3ccccc3[n+]2CCCS(=O)(=O)[O-])ccc1O: inactive
Cc1noc(C)c1CSCC(=O)Oc1ccc(N(C)S(=O)(=O)c2ccccc2)cc1: inactive
COc1cc2c(cc1OC)C(c1cc(Br)ccc1F)N(C(=O)CCl)CC2 (configuration not stated): active
COc1ccc(N(C(=O)COc2cccc(C)c2)S(=O)(=O)c2ccc(C)cc2)cc1: inactive
N#CCCN(C(=O)CCl)c1cccc(Cl)c1: active
Cc1ccccc1-c1cc2c(nn1)-c1ccccc1C2=O: active
Cc1sc(NC(=O)CSC2=NCCS2)nc1-c1ccccc1: active
CC(C)(C)OC(=O)N/N=C\c1ccc(OC(=O)c2ccco2)cc1: inactive
CC(C)(C)c1cnnn1-c1ccc(C(=O)CCl)cc1: inactive
COc1ccc(S(=O)(=O)Nc2ccc(O)c3ccccc23)cc1: active
COC(=O)c1nc(-c2ccc3c(n2)C(=O)C(N)=C(OC)C3=O)c(N)c(-c2ccc(OC)c(OC)c2O)c1C: active
O=C(CCl)N(c1ccccc1)c1c[nH]c2ccccc12: active
COc1ccccc1Oc1cc(C#N)c(C#N)cc1-n1nnc2ccccc21: active
CC(=O)NC1N=C(C)N(c2ccccc2)C1=O (configuration not stated): active
O=C1CC(CSc2ccc(Cl)cc2)=NN1: active
CN1C(=O)/C(=C/c2ccc(-c3ccccc3[N+](=O)[O-])o2)SC1=Nc1ccc(Cl)c(C(=O)O)c1: active
Cc1cc(O)ccc1Nc1nc(-c2cccs2)cs1: active
O=C(CCl)Nc1cccc(CP(=O)(c2ccccc2)c2ccccc2)c1: active
O=C1C=C(Nc2ccccc2O)c2ccccc2C1=O: inactive
CCOC(=O)c1ccc(CC2S/C(=C(\C#N)C(C)=O)NC2=O)cc1 (configuration not stated): inactive
CC(=O)NCCn1c(SCC(=O)NCc2ccco2)nc2ccccc2c1=O: inactive
CC(=O)N(C1=C(N)C(=O)c2ccccc2C1=O)c1ccccc1: active

---

assay: non-covalent RecA intein splicing inhibitors, dose response, biochemical, cell-free, fluorescence, secondary screen (AID 449750)
Activity calls are given as the source filed them. How the calls were made is not given here.
Labels: 1 for active, 0 for inactive

CC(C)c1[nH]nc2c1C1(CCN(Cc3ccccc3)CC1)C(C#N)=C(N)O2: 0
Cc1ccc2[nH]c3c(c2c1)CN(C(=O)CN1CCSCC1)CC3: 0
CCOC(=O)c1c(C)sc2c1N(C(=O)CCl)c1cc(Cl)ccc1S2: 1
Cc1c(C#N)c(NC(=O)CCl)n(Cc2ccc(F)cc2)c1C: 1
COc1cc(C(c2c(C)[nH][nH]c2=O)c2c(C)[nH][nH]c2=O)cc(Cl)c1O: 1
Cc1ccc(-c2cc(-c3ccc(C)cc3)[n+](-c3ccc(C(=O)[O-])cc3)c(-c3ccc(C)cc3)c2)cc1: 1
CC(CCn1cccn1)NC(=O)CCc1nnc(CCc2ccccc2)o1 (configuration not stated): 0
Oc1[nH]c2ccccc2c1N=NC(=S)N1CCOCC1: 0
O=C(CN1C(=O)S/C(=C\C=C\c2ccccc2)C1=O)Nc1ccccc1C(=O)O: 1
ClCc1nnc(-c2cc3c(s2)CCCC3)o1: 0
Cc1ccc(Sc2c(C)[nH]n(C(C)(C)C)c2=O)cc1: 0
COc1cccc(-c2[nH]nc3c2C(c2ccc(C)o2)C(C#N)=C(N)O3)c1 (configuration not stated): 1

---

assay: non-covalent RecA intein splicing inhibitors, dose response, biochemical, cell-free, fluorescence, secondary screen (AID 449750)
Active and inactive are the calls of the source. How the calls were made is not given here.
Labels: active, inactive

C=C(C)CNC(=S)N=Nc1c(O)[nH]c2ccc([N+](=O)[O-])cc12: inactive
CSc1nc(=S)n(-c2ccc([N+](=O)[O-])cc2)c(C)c1C(C)=O: inactive
CC(C)=CCC/C(C)=C/Cc1c(O)ccc(C(=O)/C=C/c2ccc(O)cc2)c1O: active
[O-][n+]1c2c(nc3c1-c1ccccc1C3O)CCCC2 (configuration not stated): active
O=C1C(Cl)=C(N2CCOCC2)C(=O)N1c1cccc(C(F)(F)F)c1: inactive
C/C(CC(=O)Nc1cc(C)ccn1)=N\NC(=O)COc1cccc(C)c1: active
CCCCOc1ccc(C2C3CN(C(=O)OCC)CC=C3C(C#N)=C(N)C2(C#N)C#N)cc1OC (configuration not stated): inactive
COc1ccc(/C=C(/C#N)C(=O)Nc2ccc(O)cc2)cc1C(=O)O: inactive
Cc1ccc(-c2nc(CN3CCCC(C(=O)N4CCOCC4)C3)c(C)o2)cc1 (configuration not stated): inactive
CC(C)(C)c1cc(NC(=O)CCl)n(-c2ccccc2)n1: active
COCCOC(=O)C1=C(C)N=C2SCCC(=O)N2C1c1ccc(OC(=O)c2ccco2)cc1 (configuration not stated): inactive
CCCCNC(=O)c1c(N)n(Cc2ccc3c(c2)OCO3)c2nc3ccccc3nc12: active
COCc1[nH]nc2c1C(c1ccccc1OC)C(C#N)=C(N)O2 (configuration not stated): active
COC(=O)Cc1c(C)[nH]n(-c2cc(Cl)cc(Cl)c2)c1=O: inactive
CCOC(=O)CN1C(=O)N[C@@H](c2cccc(C(F)(F)F)c2)C(C(C)=O)=C1C: inactive
Cc1ccc(-n2[nH]c(C)c(/C=N/NC(=O)c3ccc([N+](=O)[O-])cc3)c2=O)c(C)c1: active
CCOC(=O)C1CCN(Cc2cc(C(C)C)c(O)c(C(C)C)c2)CC1: inactive
CC(C)NC(=S)NC1(C)CCS(=O)(=O)C1 (configuration not stated): inactive
COc1c(O)ccc2c1CN1CCc3cc4c(cc3C1C2)OCO4 (configuration not stated): inactive
Cc1[nH]n(-c2ccccc2)c(=O)c1C(c1ccc(O)c([N+](=O)[O-])c1)c1c(C)[nH]n(-c2ccccc2)c1=O: active
CCCCCc1cc(=O)oc2c(C(CCN3CCCC(C)C3)c3ccc4c(c3)OCO4)c(OC)cc(OC)c12 (configuration not stated): active
O=C(NCc1cccnc1)/C(=C\c1ccc(-c2cccc(Cl)c2)o1)S(=O)(=O)c1ccccc1: active
Cc1nc2ccccc2c2c1C(=O)N(Cc1cccnc1)C2=O: inactive
O=C(CCN1C(=O)/C(=C/c2cccs2)SC1=S)Nc1ccc(C(=O)O)c(O)c1: active
CC(C)[n+]1ccn(C2=C([O-])c3ccccc3C(=O)/C2=N\S(=O)(=O)c2ccccc2)c1: active
COc1cc(/C=C2\C(=O)N(c3ccc(S(N)(=O)=O)cc3)N=C2C)ccc1OC(=O)c1ccco1: active
O=C(Oc1ccc(N(C(=O)c2ccncc2)S(=O)(=O)c2ccc(Cl)cc2)cc1)c1ccncc1: inactive
O=C1c2ccccc2C(=O)c2c1oc(C(F)(F)F)c2C(=O)c1ccccc1: inactive
O=[N+]([O-])c1c(NCCO)cc(Sc2nc3ccccc3s2)c2nonc12: active
O=C1NCCCC2c3c(cc(Br)c(O)c3Br)OC12N1CCCCC1 (configuration not stated): inactive
COc1cccc(/C=C/C(=O)c2ccc(NS(=O)(=O)c3ccc(C)cc3)cc2)c1: active
CC(=O)Nc1ccc(S(=O)(=O)/N=C2\C(=O)c3ccccc3C([O-])=C2n2cc[n+](-c3ccccn3)c2)cc1: active
Cc1sc2ncnc(Sc3nnnn3-c3ccccc3)c2c1C: inactive
Cc1cccc(CSC(Nc2ccc(F)cc2)=C(C#N)C#N)c1: inactive
Cc1ccccc1C(CC(=O)c1cccs1)C(C#N)C#N (configuration not stated): active
O=C(NCc1ccccc1)c1nc(S(=O)(=O)Cc2ccccc2)ncc1Cl: inactive
Cc1onc(-c2ccccc2)c1-c1nc2ccccc2c(=O)o1: inactive

---

assay: non-covalent RecA intein splicing inhibitors, dose response, biochemical, cell-free, fluorescence, secondary screen (AID 449750)
The source made the active and inactive calls. No rule for the calls is given here.
Labels: TRUE = active, FALSE = inactive

ClC(Cl)(Cl)c1nc2ccccc2n2nncc12: FALSE
O=c1c(Cl)c(Cl)cnn1Cc1ccccc1Cl: TRUE
CCOC(=O)c1nn(-c2ccccc2C)c(=O)c2c(N)scc12: FALSE
CC(C)CCn1c(N)c(C(=O)NCc2cccs2)c2nc3ccccc3nc21: FALSE
Cc1[nH]n(-c2ccccc2)c(=O)c1C(C[N+](=O)[O-])c1ccc(Br)cc1 (configuration not stated): TRUE
O=C(/C=C/c1ccco1)c1ccc(NC(=O)C23CC4CC(CC(C4)C2)C3)cc1: TRUE
O=[N+]([O-])c1ccc2nc(Cl)nc(-c3ccccc3)c2c1: FALSE
Cc1ccc(C(=O)c2coc3cc([N+](=O)[O-])c(O)c([N+](=O)[O-])c23)cc1: FALSE
COc1ccc(NC(=O)Nc2ccc(O)c3ccccc23)cc1: TRUE
CCCCCn1c(NC(=O)c2ccco2)c(S(=O)(=O)c2ccc(C)cc2)c2nc3ccccc3nc21: FALSE
Cc1[nH]nc2c1C(c1cn[nH]c1-c1ccc(F)cc1)C(C#N)=C(N)O2 (configuration not stated): FALSE
O=[N+]([O-])/C(C(Cl)=C(Cl)Cl)=C(/Sc1ccccc1)N1CCCCC1: FALSE
Cn1c(=O)c([N+](=O)[O-])c(Cl)c2ccccc21: FALSE
O=C(CCl)N1c2ccccc2CCc2ccccc21: TRUE
O=C(CCl)N1CCN2C(=O)c3ccccc3C12c1ccc(Cl)cc1 (configuration not stated): TRUE
CCCCCOP(=O)(OCCCCC)C1(NS(=O)(=O)c2ccccc2)C=CC(=O)c2ccccc21 (configuration not stated): TRUE
CCOc1cc(C(c2c(C)[nH][nH]c2=O)c2c(C)[nH][nH]c2=O)ccc1OCc1ccc([N+](=O)[O-])cc1: TRUE
O=Cc1sc(=O)n(Cc2cccc(C(=O)O)c2)c1Cl: FALSE
CC1(C)CC2(C)OC(=N)C1(C#N)C2(C#N)C#N (configuration not stated): FALSE
COc1ccc(S(=O)(=O)Nc2c(O)ccc3ccccc23)cc1OC: TRUE
Cc1ccc2c(c1)Oc1ccc(NC(=O)CCl)cc1C(=O)N2: TRUE
O=C(Cc1ccccc1)c1c[nH]c(C(=O)C(Cl)(Cl)Cl)c1: TRUE
CCNc1ccccc1CP(=O)(c1ccccc1)c1ccccc1O (configuration not stated): TRUE
Cc1ccc(-n2nc(C)c(NC(=O)CCl)c2C)cc1C: TRUE
CSc1nnc(NC(=O)c2nc(S(=O)(=O)Cc3ccc(C)cc3)ncc2Cl)s1: FALSE
CCOC(=O)C(C#N)C(c1cccnc1)c1c(C)[nH][nH]c1=O (configuration not stated): FALSE
COc1cc(C2(c3ccc(O)c(OC)c3)C(=O)Nc3c(C)cc(Br)cc32)ccc1O: TRUE
NC(=O)C1CCN(C2=C(Cl)C(=O)c3ccccc3C2=O)CC1: TRUE
Cc1ccccc1-c1nc(CN(C)C(C)c2ccon2)c(C)o1 (configuration not stated): FALSE
CCc1[nH]nc2c1C(c1cccc(OC(=O)N3CCOCC3)c1)C(C#N)=C(N)O2 (configuration not stated): FALSE
CCOc1c(Br)cc(/C=C2\C(=O)N(CCC#N)N=C2C)cc1OC: TRUE
O=C(CSC1=NCCS1)Nc1nc(-c2ccccc2)cs1: TRUE
Cc1ccccc1N1C(=O)c2ccccc2C1Nc1cccnc1 (configuration not stated): FALSE
Cc1[nH]n(-c2ccccc2)c(=O)c1C(C[N+](=O)[O-])c1ccccc1Cl (configuration not stated): TRUE
COC(=O)c1sc(-c2cccs2)cc1NC(=O)/C=C/C(=O)O: TRUE
C/C(CC(=O)Nc1cc(C)ccn1)=N\NC(=O)c1ccncc1: TRUE
COc1ccc(-c2[nH]nc3c2C(c2ccccc2OC(=O)N2CCOCC2)C(C#N)=C(N)O3)cc1 (configuration not stated): TRUE
CN(C)C(=S)N=Nc1[nH]c2ccccc2c1O: FALSE
CC(C)c1nnc(NC(=O)CCS(=O)(=O)c2nc(-c3cccs3)cc(C(F)(F)F)n2)s1: FALSE
CC(Nc1c[nH]c(=O)[nH]c1=O)c1ccccc1 (configuration not stated): FALSE
COc1cc(NCCCCCCCN)c2ncccc2c1: TRUE
CCOc1ccc2c(c1)C(NC(C)=O)C(=O)N2CCN1CCOCC1 (configuration not stated): TRUE
